Target: PDK1 (Homo sapiens (Human))
Test: PDK1 kinase assay (coupled PDK1/AKT/FAM-crosstide assay, IMAP fluorescence polarization)
Type: biochemical
Conditions: inhibition of PDK1 in vitro
pIC50: −log10 of the molar value.
quantity: pIC50

chemical.string | tgt | pIC50
C[C@H](NC(=O)c1cccnc1NCc1ccc(-c2cn(C3CCC3)c3ncnc(N)c23)cc1)c1ccc(F)cc1 | PDK1 (Homo sapiens (Human)) | 6.00 to 7.00
Nc1n[nH]c2ncc(-c3ccc(CNc4ncc(C(F)(F)F)cc4C(=O)NC4CCCCC4)cc3)cc12 | PDK1 (Homo sapiens (Human)) | > 7.00
C[C@H](NC(=O)c1cc(C#N)cnc1NCc1ccc(-c2ccc(C(N)=O)nc2)cc1)c1ccc(F)cc1 | PDK1 (Homo sapiens (Human)) | 6.00 to 7.00
C[C@H](NC(=O)c1cc(C#N)cnc1NCC#Cc1cnc2[nH]ncc2c1)c1ccc(F)cc1 | PDK1 (Homo sapiens (Human)) | < 5.30
C[C@H](NC(=O)c1nc(C#N)cnc1NCc1ccc(-c2cnc(N)c(C(=O)N3CCNCC3)n2)cc1)c1ccc(F)c(F)c1 | PDK1 (Homo sapiens (Human)) | > 7.00

Please state, for each entry, its recorded pIC50.
1. N#Cc1ccc(NC(=O)c2nc(C#N)cnc2NCc2ccc(-c3cnc4[nH]nc(N)c4c3)cc2)cc1
2. C[C@H](NC(=O)c1nc(C#N)cnc1NCc1ccc(-c2cnc(NCCO)cn2)cc1)c1ccc(F)c(F)c1

Ans.
1. > 7.00
2. > 7.00

----------
System: phospho-akt (Thr308) in PC-3 cells
Experiment: Inhibition of phospho-akt (Thr308) in PC-3 cells, MSD phospho-akt 308 ELISA kit
Format: cell-based
Settings: Homo sapiens; inhibition of P308 Akt in PC-3 cells using MSD, 2 hours, no serum; read-out: EC50
quantity: EC50

chemical.string | tgt | EC50
Cn1cc(-c2ccc(CNc3ncc(C(F)(F)F)cc3C(=O)Nc3ccc(F)cn3)cc2)c2c(N)ncnc21 | phospho-akt (Thr308) in PC-3 cells | 1000 to 10000 nM
N#Cc1cnc(NCc2ccc(-c3cnc4[nH]c(=O)[nH]c4c3)cc2)c(C(=O)NCc2ccc(F)cc2)n1 | phospho-akt (Thr308) in PC-3 cells | < 1000 nM
C[C@H](NC(=O)c1cc(C(F)(F)F)cnc1NCc1ccc(-c2cnc3[nH]c(=O)[nH]c3c2)cc1)c1ccc(F)c(F)c1 | phospho-akt (Thr308) in PC-3 cells | < 1000 nM
Nc1ncnc2[nH]nc(-c3ccc(CNc4ncc(C(F)(F)F)cc4C(=O)NCc4ccc(F)c(F)c4)cc3)c12 | phospho-akt (Thr308) in PC-3 cells | < 1000 nM
C[C@H](NC(=O)c1cc(C#N)cnc1NCc1ccc(-c2cnc(N)cn2)cc1)c1ccc(F)cc1 | phospho-akt (Thr308) in PC-3 cells | < 1000 nM
C[C@@H](Nc1ncc(C(F)(F)F)cc1C(=O)Nc1ccc(F)cc1)c1ccc(-c2cn(C)c3ncnc(N)c23)cc1 | phospho-akt (Thr308) in PC-3 cells | 1000 to 10000 nM

Please state, for each entry, its recorded EC50.
1. Nc1n[nH]c2ncc(-c3ccc(CNc4ncc(C(F)(F)F)cc4C(=O)NCc4cscn4)cc3)cc12
2. Cc1cc(F)ccc1NC(=O)c1cc(C(F)(F)F)cnc1NCc1ccc(-c2cnc3[nH]nc(N)c3c2)cc1
3. C[C@H](NC(=O)c1nc(C#N)cnc1NCc1ccc(-c2cnc(N)c(CC[C@@H]3CCCN3)n2)cc1)c1ccc(F)c(F)c1
4. C[C@H](NC(=O)c1cc(C#N)cnc1NCc1ccc(-c2ccc3c(N)ncnn23)cc1)c1ccc(F)cc1
5. CNc1ncc2cc(C#CCNc3ncc(C(F)(F)F)cc3C(=O)NCc3ccc(F)c(F)c3)ccc2n1
6. CN(C)CCCn1cc(-c2ccc(CNc3ncc(C(F)(F)F)cc3C(=O)NCc3ccc(F)c(F)c3)cc2)c2c(N)ncnc21

Ans.
["1000 to 10000 nM", "< 1000 nM", "1000 to 10000 nM", "1000 to 10000 nM", "1000 to 10000 nM", "< 1000 nM"]

Please state, for each entry, its recorded EC50.
1. O=C(NCc1ccc(F)c(F)c1)c1cccnc1NCc1cc(-c2c[nH]c3ncc(-c4ccc[nH]4)cc23)ccn1
2. Nc1n[nH]c2ncc(-c3ccc(CNc4ncc(C(F)(F)F)cc4C(=O)Nc4ccccc4)cc3)cc12

Ans.
1: 1000 to 10000 nM; 2: < 1000 nM

----------
Provide the reported IC50 of each item.
Molecular target: UniProtKB O15530
Assay: PDK1 kinase assay (coupled PDK1/AKT/FAM-crosstide assay, IMAP fluorescence polarization)
Type: biochemical
Conditions: inhibition of phospo-PDK1 in vitro
Where a name gives a salt, the structure may show the parent alone.

Guide cases for IC50, answers given:
compound | tgt | test.value
N#Cc1cnc(N[C@@H](COc2ccc3[nH]c(=O)[nH]c3c2)c2ccccc2)c(C(=O)NCc2ccc(F)cc2)n1 | UniProtKB O15530 | < 0.1 µM
Nc1ncnc2ccc(-c3ccc(CNc4ncccc4C(=O)NCc4cc(F)ccc4C(F)(F)F)s3)cc12 [Example 3.12, (TFA salt)] | UniProtKB O15530 | > 5 µM
Nc1ncnc2ccc(-c3ccc(CNc4ncc(NC(=O)C(F)(F)F)cc4C(=O)NCc4ccc(F)c(F)c4)s3)cc12 | UniProtKB O15530 | 0.1 to 1 µM
Nc1ncnc2ccc(-c3ccc(CNc4ncc(NC(=O)Cc5ccccc5)cc4C(=O)NCc4ccc(F)c(F)c4)s3)cc12 | UniProtKB O15530 | 1 to 5 µM
O=C1Nc2cc(/C=C/CNc3ncccc3C(=O)NCc3cncc(F)c3)ccc2/C1=C/c1cnc[nH]1 | UniProtKB O15530 | < 0.1 µM
CC(C)Oc1cc(CNc2ncccc2C(=O)NCC(F)(F)F)cc(-c2c[nH]c3ncc(C(=O)NC4CC4)cc23)c1 | UniProtKB O15530 | > 5 µM

Turning to the following compound.
Qu. Looking for the measured IC50 of "Nc1n[nH]c2ncc(-c3ccc(CNc4ncc(C(F)(F)F)nc4C(=O)Nc4ccc(F)cc4)cc3)cc12" , can you help?
Ans. < 0.1 µM

----------
Provide the reported IC50 of each item.
Target: PDK1 (Homo sapiens (Human))
Assay: PDK1 kinase assay (coupled PDK1/AKT/FAM-crosstide assay, IMAP fluorescence polarization)
Assay type: biochemical
Settings: inhibition of phospo-PDK1 in vitro

Guide cases for IC50, answers given:
compound | tgt | test.value
O=C(NCc1ccc(F)c(F)c1)c1cccnc1NCc1nc(-c2c[nH]c3ncccc23)cs1 [Ex. 6.11] | PDK1 (Homo sapiens (Human)) | 0.1 to 1 µM
N#Cc1cnc(NC/C=C/c2ccc3c(c2)NC(=O)/C3=C\c2cnc[nH]2)c(C(=O)O)c1 [Example 15.16] | PDK1 (Homo sapiens (Human)) | 0.1 to 1 µM
C[C@H](NC(=O)c1c(NCc2ccc(-c3ccc4ncnc(N)c4c3)s2)ncc(Br)c1N)c1ccc(F)c(F)c1 [Example 3.87] | PDK1 (Homo sapiens (Human)) | 1 to 5 µM
CC(C)Oc1cc(CNc2ncccc2C(=O)N(C)C2CC2)cc(-c2c[nH]c3ncc(C(=O)NC4CC4)cc23)c1 [Example 4.1.10] | PDK1 (Homo sapiens (Human)) | > 5 µM
N#Cc1cnc(NCc2ccc(-c3cnc4[nH]nc(N)c4c3)cc2)c(C(=O)NCc2cncc(F)c2)n1 [Example 26] | PDK1 (Homo sapiens (Human)) | < 0.1 µM

Please state, for each entry, its recorded IC50.
1. Nc1ncnc2ccc(-c3ccc(CNc4nc5c(cc4C(=O)NCc4ccc(F)c(F)c4)CCC5)s3)cc12 [Ex. 8.15.1]
2. O=C(NCc1ccc(F)cc1)c1cccnc1NCc1ccc(-c2c[nH]c3ncccc23)s1 [Example 1.16]

Ans.
["0.1 to 1 µM", "0.1 to 1 µM"]

----------
Target: PDK1 (Homo sapiens (Human), UniProt O15530)
Sequence (O15530 51-359): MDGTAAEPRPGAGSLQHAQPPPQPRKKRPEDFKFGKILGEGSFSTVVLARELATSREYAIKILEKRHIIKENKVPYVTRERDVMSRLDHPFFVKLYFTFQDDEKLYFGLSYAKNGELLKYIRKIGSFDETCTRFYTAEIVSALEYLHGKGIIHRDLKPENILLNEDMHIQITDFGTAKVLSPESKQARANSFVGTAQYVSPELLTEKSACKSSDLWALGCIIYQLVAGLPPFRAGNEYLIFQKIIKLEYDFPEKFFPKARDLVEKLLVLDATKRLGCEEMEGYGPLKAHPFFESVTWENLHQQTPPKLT
Assay: PDK1 kinase assay (coupled PDK1/AKT/FAM-crosstide assay, IMAP fluorescence polarization)
Format: biochemical
Conditions: inhibition of phospo-PDK1 in vitro
Provide the reported IC50 of each item.

Guide cases for IC50, answers given:
chemical.string | quantity | test.value
Cn1ccc(Nc2ncnc3ccc(-c4ccc(CNc5ncccc5C(=O)NCc5ccc(F)c(F)c5)s4)cc23)n1 | IC50 | > 5000 nM
N#Cc1cnc(NCc2ccc(-c3ccc4ncnc(N)c4c3)s2)c(C(=O)NCc2ccc(F)c(F)c2)c1 | IC50 | < 100 nM
Nc1ncnc2ccc(-c3ccc(CNc4ncc(C(=O)N5CCOCC5)cc4C(=O)NCc4ccc(F)c(F)c4)s3)cc12 | IC50 | < 100 nM

Qu. Request body: readout IC50, system PDK1 (Homo sapiens (Human), UniProt O15530), query "CN(c1ncnc2ccc(-c3ccc(CNc4ncccc4C(=O)NCc4ccc(F)c(F)c4)s3)cc12)C1CCCCC1" . Return the value.
Ans. > 5000 nM
